species on record: Rattus norvegicus; assay: Open TG-GATES - Regimen: Single; assay type: toxicity, organism-based, Sprague-Dawley; design: regimen Single, gender Male, age 6 weeks; conditions: in vivo, po, 0 mg/kg, 24 h, tissue Blood, route gavage, dose level Control
RESULT TYPE: Eos (%)
Express the result in % but write the number alone.

The cases that follow already have their Eos on record.
- MOLECULE: "C[C@H](CS)C(=O)N1CCC[C@H]1C(=O)O"
  Eos [%]: 1.4
- MOLECULE: "Clc1ccccc1CN1CCc2sccc2C1"
  Eos [%]: 0.8
- MOLECULE: "COc1ccc(Cc2nccc3cc(OC)c(OC)cc23)cc1OC"
  Eos [%]: 1

Dear colleague, please send me the reported Eos for NC(=O)N1c2ccccc2C=Cc2ccccc21 [CARBAMAZEPINE] when you can. 0.8

Where do the numbers come from? From ChEMBL document CHEMBL3885861.
